// reported OD450 nm per item
Assayed System: monkey GPC3-His protein (monkey)
Assay: ELISA, monkey GPC3-His coated; antibody 0.02 nM
Recorded Metric: OD450 nm

INSERT INTO measurements (binder, observed_measurement) VALUES
  ('hAb003LH2L1a (antibody, human IgG1, V domains shown) VH: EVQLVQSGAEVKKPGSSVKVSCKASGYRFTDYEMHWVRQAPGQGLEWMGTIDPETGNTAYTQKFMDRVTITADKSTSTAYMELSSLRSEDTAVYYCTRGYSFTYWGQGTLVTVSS VL: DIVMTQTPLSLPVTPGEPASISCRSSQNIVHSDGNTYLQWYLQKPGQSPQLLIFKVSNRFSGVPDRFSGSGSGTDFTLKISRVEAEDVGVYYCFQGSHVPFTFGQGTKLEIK', 0.475),
  ('hAb003LH1L1a (antibody, human IgG1, V domains shown) VH: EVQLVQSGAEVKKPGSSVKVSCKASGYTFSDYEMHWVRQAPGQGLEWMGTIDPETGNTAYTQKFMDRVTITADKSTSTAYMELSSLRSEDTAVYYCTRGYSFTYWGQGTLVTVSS VL: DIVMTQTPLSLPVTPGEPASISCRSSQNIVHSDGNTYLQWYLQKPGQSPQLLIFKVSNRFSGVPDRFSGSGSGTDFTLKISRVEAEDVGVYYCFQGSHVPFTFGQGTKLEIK', 0.483),
  ('hAb005LH2L1b (antibody, human IgG1, V domains shown) VH: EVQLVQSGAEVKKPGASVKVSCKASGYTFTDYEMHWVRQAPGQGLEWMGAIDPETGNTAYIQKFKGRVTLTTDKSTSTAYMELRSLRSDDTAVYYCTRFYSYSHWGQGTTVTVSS VL: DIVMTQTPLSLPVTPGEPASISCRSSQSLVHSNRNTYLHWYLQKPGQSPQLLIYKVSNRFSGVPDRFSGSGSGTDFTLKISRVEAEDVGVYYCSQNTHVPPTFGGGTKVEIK', 0.687);
